Origin of the recorded values: patent US20230220071A1

Item-by-item account of koff
- subject of test: T1, human transferrin receptor (BIAcore, construct not stated) (human, UniProt P02786 89-760)
- T1 construct: also called huTfR
- assay overview: SPR, 25 C
Write the number in s⁻¹ without appending the unit.

[[record]]
binder = "clone 299 VH 0 (rb) / VL 7 (antibody, V domains shown) VH: QSMEESGGRLVTPGTPLTLTCTVSGFSLSSYAMSWVRQAPGKGLEWIGYIWSGGSTDYASWAKGRFTISKTSTTVDLKITSPTTEDTATYFCARRYGTSYPDYGDANGFDPWGPGTLVTVSS VL: AIQLTQSPSSLSASVGDRVTITCRASQSISSYLAWYQQKPGKAPKLLIYRASTLASGVPSRFSGSGSGTDFTLTISSLQPEDFATYYCQQSYSSSNVDNTFGGGTKVEIK"
value_unit = "s⁻¹"
result_number = 0.00463

[[record]]
binder = "clone 299 VH 18 / VL 0 (rb) (antibody, V domains shown) VH: QVQLQESGPGLVKPSQTLSLTCTVSGFSLSSYAMSWIRQHPGKGLEWIGYIWSGGSTDYAPSLKSRVTISVDTSKNQFSLKLSSVTAADTAVYYCARRYGTSYPDYGDANGFDPWGQGTLVTVSS VL: AYDMTQTPASVEVAVGGTVTIKCQASQSISSYLSWYQQKPGQRPKLLIYRASTLASGVSSRFKGSGSGTQFTLTISGVECADAATYYCQQCYSSSNVDNTFGGGTEVVVK"
value_unit = "s⁻¹"
result_number = 0.00109


koff reading for clone 299 VH 0 (rb) / VL 17 (antibody, V domains shown) VH: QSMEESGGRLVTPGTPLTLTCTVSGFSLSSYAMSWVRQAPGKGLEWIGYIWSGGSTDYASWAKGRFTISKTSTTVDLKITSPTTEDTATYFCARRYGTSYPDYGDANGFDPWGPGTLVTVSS VL: AIQLTQSPSSLSASVGDRVTITCRASQSISSYLAWYQQKPGKAPKLLIYRASTLASGVPSRFSGSGSGTDFTLTISSLQPEDFATYYCQQTYSSSNVDNTFGGGTKVEIK : 0.00149
